Endpoint: pKi. System: UniProt:P00760. Items follow.
Sequence (P00760 whole entry): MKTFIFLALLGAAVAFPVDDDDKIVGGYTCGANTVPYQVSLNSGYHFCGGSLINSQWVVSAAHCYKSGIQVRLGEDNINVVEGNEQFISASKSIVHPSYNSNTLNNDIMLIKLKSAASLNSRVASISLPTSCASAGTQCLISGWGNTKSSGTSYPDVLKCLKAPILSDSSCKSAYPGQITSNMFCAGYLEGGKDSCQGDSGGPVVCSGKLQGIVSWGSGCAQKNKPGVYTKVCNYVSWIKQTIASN
Formally, pKi is defined as -log10 of the concentration c, with c in mol/L.

{"MOLECULE": "Cn1c(N)nc2ccccc21", "pKi": 3.43}
{"MOLECULE": "CC(=O)N1CCC[C@@H]1C(=O)N[C@@H](CCC1CCNC1)C(=O)c1noc(Cc2ccc(C(=O)NC3Cc4ccccc4C3)cc2)n1 (some centres undefined)", "pKi": 7.28}

Attention now shifts to the item below.
Send back UniProt:P00760 pKi of C=CCOC(=O)N[C@@H](CCC1CCNC1)C(=O)c1noc(Cc2ccc(C(=O)NC3Cc4ccccc4C3)cc2)n1 (some centres undefined) only. 5.80

Values compiled from BindingDB's records for doi:10.1021/bi060173m.
